- Experimental System: GABARAPL2, P60520
- Sequence (P60520 whole entry, the tested form may be a part): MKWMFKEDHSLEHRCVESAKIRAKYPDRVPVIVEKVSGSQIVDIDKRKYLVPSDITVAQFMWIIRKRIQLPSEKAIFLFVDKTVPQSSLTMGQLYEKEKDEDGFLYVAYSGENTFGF
- Assay Name: median log2 fold change of GCK-ALFA target abundance (FLAG IP / Myc IP barcode read proportion) (log2 ratio); each designed protein is fused to an ALFA-tag nanobody in HEK293 cells to bring the named protein to FLAG-tagged glucokinase (GCK); Myc marks an untargeted standard; higher = target protein stabilised (more abundant)
- Condition Details: target protein: 3xFLAG-MCP-GCK-ALFA reporter; HEK293 landing pad (RPLP)
Observed Property: median log2 fold change
The reply should be a number, written without any unit.

GBRAPL2_0_7236 (protein) MEELLKRLLSLSLEEAKKEIKELAEKAIKLIKKDPEKGIKYAEELAKVFAEYLEKTKNEELAEVIDEAIDKIVEEVAKVDPNAAAAIASEIGSALYEVES    0.224

Could you now consider this next binder?
Query :: Provide one value: measured median log2 fold change of GBRAPL2_54_7380 (protein) MKKVLITGEFIVEGDEESLEKVKKVAEEKSKELSEELKKKYGAESTISFEEEDGVLYITIDIITDEEAVDDVIDKLEELKKEIEKETGLKVSLVIGIEYL
Result :: 0.0537
